assayedSystem: ATP-dependent translocase ABCB1 (Homo sapiens)
test: Inhibition of human ABCB1 expressed in mouse L5178Y cells assessed as increase in rhodamine-123 accumulation by measuring forward scatter count of cells at 20 uM pretreated for 10 mins followed by rhodamine-123 addition after 20 mins by flow cytometry (reference value: 2206)
Format: cell-based
recordedMetric: Activity

Challenge: Query the reported Activity for ATP-dependent translocase ABCB1 (Homo sapiens); item: CC[C@H]1CN(C)[C@H]2Cc3c([nH]c4ccccc34)/C(=N/NC(N)=O)C[C@H]1[C@@H]2C(=O)OC
Response given: 2380

Challenge: Query the reported Activity for ATP-dependent translocase ABCB1 (Homo sapiens); item: CC[C@H]1CN(C)[C@H]2Cc3c([nH]c4ccccc34)/C(=N/O)C[C@H]1[C@@H]2C(=O)OC
Response given: 2182

Challenge: Query the reported Activity for ATP-dependent translocase ABCB1 (Homo sapiens); item: CC[C@@H]1CN(C)[C@H]2Cc3c([nH]c4ccccc34)/C(=N/Nc3cnccn3)C[C@H]1[C@@H]2C(=O)OC
Response given: 2265

Challenge: Query the reported Activity for ATP-dependent translocase ABCB1 (Homo sapiens); item: CC[C@H]1CN(C)[C@H]2Cc3c(n(C)c4ccccc34)C(=O)C[C@H]1[C@@H]2C(=O)OC
Response given: 2428

Challenge: Query the reported Activity for ATP-dependent translocase ABCB1 (Homo sapiens); item: CC[C@@H]1CN(C)[C@H]2Cc3c([nH]c4ccccc34)/C(=N/Nc3ccccc3)C[C@H]1[C@@H]2C(=O)OC
Response given: 2046

Challenge: Query the reported Activity for ATP-dependent translocase ABCB1 (Homo sapiens); item: CC[C@H]1CN(C)[C@H]2Cc3c([nH]c4ccccc34)[C@@H](O)C[C@H]1[C@@H]2C(=O)OC
Response given: 2199

Challenge: Query the reported Activity for ATP-dependent translocase ABCB1 (Homo sapiens); item: CC[C@H]1CN(C)[C@H]2Cc3c([nH]c4ccccc34)/C(=N/Nc3cnccn3)C[C@H]1[C@@H]2C(=O)OC
Response given: 2229

* * *

assayedSystem: ATP-dependent translocase ABCB1 (Homo sapiens, UniProt P08183)
Sequence (P08183 whole entry): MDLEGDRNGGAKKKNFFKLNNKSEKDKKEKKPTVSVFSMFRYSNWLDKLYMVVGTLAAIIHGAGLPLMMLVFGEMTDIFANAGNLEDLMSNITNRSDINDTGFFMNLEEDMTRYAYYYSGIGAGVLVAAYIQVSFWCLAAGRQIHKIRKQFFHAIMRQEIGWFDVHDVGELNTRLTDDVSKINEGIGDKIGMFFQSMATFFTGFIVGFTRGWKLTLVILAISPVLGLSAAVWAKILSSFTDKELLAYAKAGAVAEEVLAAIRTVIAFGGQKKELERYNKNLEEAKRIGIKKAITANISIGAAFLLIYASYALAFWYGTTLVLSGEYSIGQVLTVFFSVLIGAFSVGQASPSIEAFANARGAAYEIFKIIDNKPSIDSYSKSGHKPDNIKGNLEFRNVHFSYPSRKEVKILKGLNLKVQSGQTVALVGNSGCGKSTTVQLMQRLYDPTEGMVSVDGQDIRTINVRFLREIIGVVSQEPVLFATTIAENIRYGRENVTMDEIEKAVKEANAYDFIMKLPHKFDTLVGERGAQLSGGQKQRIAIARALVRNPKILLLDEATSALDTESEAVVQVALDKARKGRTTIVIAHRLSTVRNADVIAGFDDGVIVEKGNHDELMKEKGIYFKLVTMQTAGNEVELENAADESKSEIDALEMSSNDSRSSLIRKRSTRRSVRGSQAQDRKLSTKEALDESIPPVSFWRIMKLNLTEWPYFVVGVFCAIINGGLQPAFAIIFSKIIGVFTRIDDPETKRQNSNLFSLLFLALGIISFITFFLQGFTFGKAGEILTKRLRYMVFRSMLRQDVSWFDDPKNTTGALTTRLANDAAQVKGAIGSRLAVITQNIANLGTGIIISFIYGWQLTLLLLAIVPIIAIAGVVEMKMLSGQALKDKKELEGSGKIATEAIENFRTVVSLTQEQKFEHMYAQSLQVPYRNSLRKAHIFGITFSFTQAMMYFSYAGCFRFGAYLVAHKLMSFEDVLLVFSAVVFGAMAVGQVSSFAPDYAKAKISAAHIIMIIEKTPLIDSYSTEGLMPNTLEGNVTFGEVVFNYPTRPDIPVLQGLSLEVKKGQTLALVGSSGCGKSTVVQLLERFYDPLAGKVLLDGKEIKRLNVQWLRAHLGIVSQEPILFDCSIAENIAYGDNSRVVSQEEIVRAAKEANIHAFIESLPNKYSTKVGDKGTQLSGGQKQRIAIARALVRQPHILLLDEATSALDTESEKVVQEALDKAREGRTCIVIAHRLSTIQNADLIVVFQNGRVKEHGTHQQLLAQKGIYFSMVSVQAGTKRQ
test: Inhibition of human ABCB1 expressed in mouse L5178Y cells assessed as increase in rhodamine-123 accumulation by measuring side scatter count of cells at 2 uM pretreated for 10 mins followed by rhodamine-123 addition after 20 mins by flow cytometry (reference value: 903)
Type: cell-based
recordedMetric: Activity

Challenge: Need Activity of CC[C@H]1CN(C)[C@H]2Cc3c([nH]c4ccccc34)/C(=N/NC(N)=O)C[C@H]1[C@@H]2C(=O)OC , thanks.
Response given: 778

Challenge: Need Activity of CC[C@H]1CN(C)[C@H]2Cc3c(n(C(=O)c4cccc(C)c4)c4ccccc34)C(=O)C[C@H]1[C@@H]2C(=O)OC , thanks.
Response given: 1197

Challenge: Need Activity of CC[C@H]1CN(C)[C@H]2Cc3c(n(Cc4ccccc4)c4ccccc34)C(=O)C[C@H]1[C@@H]2C(=O)OC , thanks.
Response given: 1217

Challenge: Need Activity of CC[C@@H]1CN(C)[C@H]2Cc3c([nH]c4ccccc34)/C(=N/Nc3ccccc3)C[C@H]1[C@@H]2C(=O)OC , thanks.
Response given: 941

Challenge: Need Activity of C/C=C/C(=O)O[C@H]1C[C@@H]2[C@@H](CC)CN(C)[C@@H](Cc3c1[nH]c1ccccc31)[C@H]2C(=O)OC , thanks.
Response given: 1226

Challenge: Need Activity of CC[C@@H]1CN(C)[C@H]2Cc3c([nH]c4ccccc34)/C(=N/N)C[C@H]1[C@@H]2C(=O)OC , thanks.
Response given: 927

Challenge: Need Activity of CC[C@H]1CN(C)[C@H]2Cc3c([nH]c4ccccc34)/C(=N/Nc3cnccn3)C[C@H]1[C@@H]2C(=O)OC , thanks.
Response given: 1058

Challenge: Need Activity of CC[C@@H]1CN(C)[C@H]2Cc3c([nH]c4ccccc34)/C(=N/Nc3cnccn3)C[C@H]1[C@@H]2C(=O)OC , thanks.
Response given: 793

Challenge: Need Activity of CC[C@H]1CN(C)[C@H]2Cc3c([nH]c4ccccc34)C(=O)C[C@H]1[C@@H]2C(=O)OC , thanks.
Response given: 1081

Challenge: Need Activity of CC[C@H]1CN(C)[C@H]2Cc3c([nH]c4ccccc34)/C(=N/Nc3ccccc3)C[C@H]1[C@@H]2C(=O)OC , thanks.
Response given: 1046

Challenge: Need Activity of CC[C@H]1CN(C)[C@H]2Cc3c([nH]c4ccccc34)/C(=N/NC(=S)NCc3cccnc3)C[C@H]1[C@@H]2C(=O)OC , thanks.
Response given: 808

Challenge: Need Activity of CC[C@@H]1CN(C)[C@H]2Cc3c([nH]c4ccccc34)C(=O)C[C@H]1[C@@H]2C(=O)OC , thanks.
Response given: 1146

Challenge: Need Activity of CC[C@H]1CN(C)[C@H]2Cc3c(n(C)c4ccccc34)C(=O)C[C@H]1[C@@H]2C(=O)OC , thanks.
Response given: 1214

Challenge: Need Activity of CC[C@@H]1CN(C)[C@H]2Cc3c([nH]c4ccccc34)/C(=N/Nc3ccc(Br)cn3)C[C@H]1[C@@H]2C(=O)OC , thanks.
Response given: 804

Challenge: Need Activity of CC[C@H]1CN(C)[C@H]2Cc3c([nH]c4ccccc34)/C(=N/NC(=O)OCc3ccc(OC)cc3)C[C@H]1[C@@H]2C(=O)OC , thanks.
Response given: 784

Challenge: Need Activity of CC[C@H]1CN(C)[C@H]2Cc3c(n(CCN(CC)CC)c4ccccc34)C(=O)C[C@H]1[C@@H]2C(=O)OC , thanks.
Response given: 1214

Challenge: Need Activity of CC[C@H]1CN(C)[C@H]2Cc3c([nH]c4ccccc34)/C(=N/Nc3ccc(Br)cn3)C[C@H]1[C@@H]2C(=O)OC , thanks.
Response given: 1049

Challenge: Need Activity of CC[C@H]1CN(C)[C@H]2Cc3c([nH]c4ccccc34)/C(=N/N)C[C@H]1[C@@H]2C(=O)OC , thanks.
Response given: 1025
